B1: SH3 and PX domain-containing protein 2B, residues 155 to 209; numbered along this chain, A1X283 (parent)
chain: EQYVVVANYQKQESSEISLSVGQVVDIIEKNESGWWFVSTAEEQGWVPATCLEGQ

variants of: B1; test: abundance fitness (aPCA) (normalised: wild type 0, dead -1); higher = more abundant; growth selection in yeast, the domain comes from the species named; conditions: Homo sapiens
Classify by measured abundance fitness: label 1 if it is equal to or exceeds -0.2, label 0 if it is smaller.

>  <mutation.key>
V38F

>  <class.assignment>
label 0

$$$$
>  <mutation.key>
S14Q

>  <class.assignment>
label 0

$$$$

Item T50K with abundance fitness of -0.2 or above? label 1

Item A49L with abundance fitness of -0.2 or above? label 1
